Test system: HCT-15
Let's look at some compounds and their measured GI50.

// worked examples, GI50 included
- Cc1ccnc2c1C(=O)C1=C(OC(C)(C)CC1O)C2=O (centres undefined): 2.38 µM
- Cc1ccc(-c2n[nH]c(=O)n2/N=C\c2ccc([N+](=O)[O-])cc2)cc1: 86.7 µM
- COc1ccc2c(c1)CCc1[nH]c3ccccc3c1CCCC2: > 10 µM
- C[C@]12O[C@@]3(C)O[C@@]3(C)[C@]3(C)O[C@]3(C)[C@@]1(C)O2: > 100 µM

Exercise: Lab note: need GI50 with HCT-15 for entry CN1CCN(CCCCN2c3ccccc3Sc3ccc(C(=O)c4ccccc4)cc32)CC1 , please look it up.
Key: 1.67 µM

Exercise: Lab note: need GI50 with HCT-15 for entry CC1C(c2ccccc2)NC(c2ccccc2)CC1(N)C#N (centres undefined) , please look it up.
Key: > 100 µM

Exercise: Lab note: need GI50 with HCT-15 for entry CC[C@]12C=CCN3CC[C@@]4(c5cc(Br)c(OC)cc5N(C)[C@H]4[C@@](O)(C(=O)NN)[C@@H]1O)[C@@H]32 , please look it up.
Key: > 100 µM

Exercise: Lab note: need GI50 with HCT-15 for entry C=C1CC[C@@H]2C13[C@@H]1[C@H](CC(=O)[C@@]23C)C1(C)C (some centres undefined) , please look it up.
Key: > 100 µM

Exercise: Lab note: need GI50 with HCT-15 for entry CSc1nc(NC2OCC(OC(C)=O)C(OC(C)=O)C2OC(C)=O)c(/N=C(\C)C(C)=O)c(=O)[nH]1 (centres undefined) , please look it up.
Key: > 100 µM

Exercise: Lab note: need GI50 with HCT-15 for entry CCOC(=O)c1nc(C)oc1C(F)(F)F , please look it up.
Key: > 100 µM

* * *

Test system: SN12C
assay.comment: NCI tumour cell line growth inhibition, 48 h
Calls of active or inactive are those of the source. Cut-off read from the data, not from the text of the source: active = GI50 up to about 1.1 µM and inactive = higher.
Let's look at some molecules and their measured GI50.

* O=C(O)C1Cc2c([nH]c3ccccc23)C(CCCCO)N1 (stereo unspecified) | > 100 µM (inactive)
* CCOC(=O)C1=NN(c2ccc(C)cc2)C2=CC(C)=NN(C)C(=S)N21 | > 100 µM (inactive)
* Cc1c2ccncc2c(C)c2c1[nH]c1ccc(Cl)cc12 | 3.41 µM (inactive)
* c1ccc2c(CNCCCCCCCCNCc3cccc4ccccc34)cccc2c1 | 6.43 µM (inactive)

Exercise: Lab note: need GI50 with SN12C for entry O=C1Nc2ccccc2C(=O)O/C(Cc2ccccc2)=N\c2ccccc21 , please look it up.
Key: > 100 µM (inactive)

Exercise: Lab note: need GI50 with SN12C for entry CCOC(=O)C1=C(C)NC(=O)N([N+](=O)[O-])C1c1ccccc1C(F)(F)F (stereo unspecified) , please look it up.
Key: > 100 µM (inactive)

* * *

Let's look at some compounds and their measured GI50.
Test system: OVCAR-5
assay.comment: NCI tumour cell line growth inhibition, 48 h
Activity calls are given as the source filed them. Cut-off read from the data, not from the text of the source: active = GI50 up to about 1.1 µM and inactive = higher. Where a SMILES comes first, the peptide text is derived from it. The star is where a group is joined. Boc = CC(C)(C)OC(=O)*; tBu = CC(C)(C)*

// worked examples, GI50 included
- Nc1ncnc2c1ncn2C1CC(OCc2ccccc2[N+](=O)[O-])C(CO)O1 (stereo not drawn): > 50 µM (inactive)
- CC(OC(C)(C)C)C(NC(=O)C(N)CCCCNC(=O)OC(C)(C)C)C(=O)NC(Cc1ccccc1)C(=O)O (stereo not drawn) (H-Lys(Boc)-Thr(tBu)-Phe-OH; configuration not given here): > 100 µM (inactive)
- COc1ccc(/N=C2\C(=N/c3ccc(OC)cc3)N(c3ccc(N(C)C)cc3)C(=S)N2c2ccc(OC)cc2)cc1: > 100 µM (inactive)
- CCOC(=O)c1nc(C)oc1C(F)(F)F: > 100 µM (inactive)
- O=C1CC2CCN(C(=O)c3ccccc3)CC2CCN1 (stereo not drawn): > 100 µM (inactive)

Exercise: Lab note: need GI50 with OVCAR-5 for entry Cc1ccc(-c2n[nH]c(=O)n2/N=C\c2ccc([N+](=O)[O-])cc2)cc1 , please look it up.
Key: > 100 µM (inactive)

Exercise: Lab note: need GI50 with OVCAR-5 for entry COc1ccc(OC)c(-c2cc(C(=O)O)c3cc4ccccc4cc3n2)c1 , please look it up.
Key: > 100 µM (inactive)

Exercise: Lab note: need GI50 with OVCAR-5 for entry O=C1[C@@H]2C(c3ccccc3F)=NO[C@@H]2C(=O)N1c1ccc(Cc2ccc(N3C(=O)[C@H]4C(c5ccccc5F)=NO[C@H]4C3=O)cc2)cc1 , please look it up.
Key: > 100 µM (inactive)

Exercise: Lab note: need GI50 with OVCAR-5 for entry CN(/N=C/c1ccccn1)C1=NCCN1 , please look it up.
Key: > 100 µM (inactive)

Exercise: Lab note: need GI50 with OVCAR-5 for entry CCOC(=O)c1cn2c(n1)sc1cc(C)c(C)cc12 , please look it up.
Key: 16.8 µM (inactive)

Exercise: Lab note: need GI50 with OVCAR-5 for entry COc1cc(/N=N\c2cccc(S(=O)(=O)O)c2)ccc1/N=N\c1ccc(/C=C/c2ccc(-n3on3-c3ccc(/C=C/c4ccc(/N=N/c5ccc(/N=N\c6cccc(S(=O)(=O)O)c6)cc5OC)cc4S(=O)(=O)O)c(S(=O)(=O)O)c3)cc2S(=O)(=O)O)c(S(=O)(=O)O)c1 , please look it up.
Key: > 100 µM (inactive)

Exercise: Lab note: need GI50 with OVCAR-5 for entry COc1cc([N+](=O)[O-])ccc1N1C(=O)C2c3[nH]c4ccccc4c3C3CCC(C(C)(C)C)CC3C2C1=O (stereo not drawn) , please look it up.
Key: 80.5 µM (inactive)

Exercise: Lab note: need GI50 with OVCAR-5 for entry O=C(Nc1cccc([N+](=O)[O-])c1)C(=O)C(C(=O)c1ccccc1F)C1OC(=O)C2C=CC=CC21 (stereo not drawn) , please look it up.
Key: 81.7 µM (inactive)

* * *

System: MOLT-4
assay.comment: NCI tumour cell line growth inhibition, 48 h
Calls of active or inactive are those of the source. No stated cut-off is given here; in the data, active = GI50 up to about 1.1 µM and inactive = higher.
quantity: GI50

• COC(=O)C(C)NP(=O)(N1CC1)N1CC1 (stereo not given) = 40.3 µM (inactive)
• C=CCN1/C(=C2\SC(=S)N(c3ccc(C)cc3)C2=O)Sc2c1nc[nH]c2=O = 58.9 µM (inactive)
• O=C1Nc2ccccc2N/C1=C\C(=O)C(F)F = > 100 µM (inactive)
• CCOC(=O)C(O)(NC(=O)c1ccccc1F)C(F)(F)F (stereo not given) = > 100 µM (inactive)
• CC(=O)NC(Cc1ccccc1)C(=S)N1CCCC1 (stereo not given) = > 100 µM (inactive)
• NC1=CN(Cc2ccccc2)C2=N/C(=C\c3ccccc3O)C(=O)N12 = 96.4 µM (inactive)
• Cc1ccc(S(=O)(=O)N(CC(O)COc2ccccc2)c2c(F)cccc2F)cc1 (stereo not given) = 28.3 µM (inactive)
• CC(=O)OCOC(=O)CN(CC(=O)OCOC(C)=O)Cc1cc2c(cc1OC(C)=O)Oc1cc(OC(C)=O)c(CN(CC(=O)OCOC(C)=O)CC(=O)OCOC(C)=O)cc1C21OC(=O)c2ccccc21 = 0.241 µM (active)
• C/C=C1\CC(C(=O)OCC)CCCCCCCCCCC1=O (stereo not given) = 29 µM (inactive)
• COc1ccc(C2CC(=O)c3c(O)cc(O)cc3O2)cc1O (stereo not given) = > 100 µM (inactive)

Exercise: Need GI50 of O=C(O)c1cc(=O)c2c(OCC(O)COc3cccc4oc(C(=O)O)cc(=O)c34)cccc2o1 , thanks.
Key: > 87.7 µM (inactive)

Exercise: Need GI50 of N=C1C(=N)c2ccccc2-c2ccccc21 , thanks.
Key: 0.337 µM (active)

Exercise: Need GI50 of Cc1ccc(-c2cc[n+]3c(n2)oc2ccccc23)cc1 , thanks.
Key: 10.8 µM (inactive)

Exercise: Need GI50 of CC(C)OP(=S)(NC(=S)c1ccccc1)OC(C)C , thanks.
Key: > 100 µM (inactive)

Exercise: Need GI50 of O=c1c(S(=O)(=O)Oc2ccccc2)coc2cc(F)ccc12 , thanks.
Key: > 100 µM (inactive)

Exercise: Need GI50 of NS(=O)(=O)c1ccc(NC(=O)c2ccc3nc4ccccc4c(Nc4ccc(S(N)(=O)=O)cc4)c3c2)cc1 , thanks.
Key: > 100 µM (inactive)

Exercise: Need GI50 of Cc1ccc2nc(-c3nccn3C)cc(C(=O)NC(C)CN(C)C)c2c1 (stereo not given) , thanks.
Key: > 10 µM (inactive)
